- ASSAYED_SYSTEM: T1, human OX40 extracellular domain (ECD) protein (human, UniProt P43489 29-214)
- T1 construct: extracellular domain; also called human OX40 ECD; human OX40 protein; not shown: human Fc or His tag
- T1 sequence (looked up): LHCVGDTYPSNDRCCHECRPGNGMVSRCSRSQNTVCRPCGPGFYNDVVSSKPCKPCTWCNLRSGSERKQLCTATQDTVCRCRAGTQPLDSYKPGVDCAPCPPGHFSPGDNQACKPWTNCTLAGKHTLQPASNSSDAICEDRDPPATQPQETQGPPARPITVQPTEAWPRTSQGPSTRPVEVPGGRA
- PROTOCOL_SUMMARY: SPR, Biacore T200, antibody captured, OX40 as analyte
ATTRIBUTE_MEASURED: koff (s⁻¹)
Give just the numeric value; s⁻¹ need not be written.

For record 1.186.19-u1-IgG1K (antibody, V domains shown, fully human IgG1, kappa) VH: QVHLVESGGGLVKPGGSLRLSCAASGFTFSDYYMGWIRQAPGQGLEWVSYISGSGNTIYYADSVKGRFTISRDNAKNSLYLQMNSLRADDTAVYFCAKERGAAGAGWFDPWGQGTLVTVSS VL: DIQMTQSPSSVSASVGDRVTITCRASQGISSWLAWYQQKPGKAPKLLIYAASSLQGGVPSRFSGSGSGTDFTLTISSLQPEDFATYHCQQVNSFPWTFGQGTKVEIK the listed koff is 0.000451
